# System: PC-3 cells
# Test name: MTT assay, PC-3 cells
# Format: cell-based, human
# Measurement conditions: prostate cancer cells; 48 h of treatment; mean ± SD
Parameter measured: pIC50
Convention used: pIC50 is expressed as -log10 of the molar concentration.

Notebook entry, PC-3 cells assay: pIC50 of N.N.[Cl][Pt][Cl] [Cis, Cisplatin, reference compound] = ?
4.46

---

# Test system: 22Rv1 cells
# Test name: DNA fragmentation (apoptosis, sub-G1), flow cytometry with PI staining
# Type: cell-based, human
# Measurement conditions: treated at IC50 (MTT assay) for 48 h, mean ± SD
# Description: The effects on cell cycle progression and DNA fragmentation were analyzed by flow cytometry using PI staining, as described before. […] Cells were harvested by trypsinization, fixed in 70% EtOH, stained with PI solution and analyzed by FACS Calibur (BD Bioscience, San Jose, CA, USA). The results were quantified using BD Bioscience Cell Quest Pro v.5.2.1. software (BD Bioscience). […]
Catalogue of compounds with associated % of sub-G1 apoptotic cells (at IC50)
Give the value, in units of %, as a plain number.

Solved cases below.
N.N.[Cl][Pt][Cl] [Cis, Cisplatin, reference compound]    14.7
Cc1cc2c([nH]c3ccccc32)c2[n+]1-c1ccccc1C2=O.[Cl-]    14.2

Could you tell me which % of sub-G1 apoptotic cells (at IC50) is on file for O=C1c2ccccc2-[n+]2ccc3c([nH]c4ccc(Br)cc43)c21.[Cl-] ?
32.38

Could you tell me which % of sub-G1 apoptotic cells (at IC50) is on file for O=C1c2ccc(Br)cc2-[n+]2ccc3c([nH]c4ccc(Br)cc43)c21.[Cl-] ?
8.63

Could you tell me which % of sub-G1 apoptotic cells (at IC50) is on file for CCc1c[n+]2c(c3[nH]c4ccccc4c13)C(=O)c1ccccc1-2.[Cl-] ?
13.4

Could you tell me which % of sub-G1 apoptotic cells (at IC50) is on file for O=C1c2ccccc2-[n+]2ccc3c([nH]c4cc(Br)ccc43)c21 ?
3.63

Could you tell me which % of sub-G1 apoptotic cells (at IC50) is on file for O=C1c2cc(Br)ccc2-[n+]2ccc3c([nH]c4ccc(Br)cc43)c21.[Cl-] ?
24.0

---

# Test system: DU145 cells
# Test name: MTT assay, DU145 cells
# Type: cell-based, human
# Measurement conditions: Homo sapiens, DU-145; prostate cancer cells; 48 h of treatment; mean ± SD
Parameter measured: IC50 (µM)
Give the value, in units of µM, as a plain number.

O=C1c2ccccc2-[n+]2ccc3c([nH]c4ccc(I)cc43)c21.[Cl-]    0.319
O=C1c2ccc(Br)cc2-[n+]2ccc3c([nH]c4cc(Br)ccc43)c21    1.51
Cc1cc2c([nH]c3ccccc32)c2[n+]1-c1ccccc1C2=O.[Cl-]    2.24
Cc1c[n+]2c(c3[nH]c4ccccc4c13)C(=O)c1ccccc1-2.[Cl-]    1.79

Could you tell me which IC50 is on file for O=C1c2ccccc2-[n+]2c(-c3ccccc3)cc3c([nH]c4ccccc43)c21.[Cl-] ?
0.444

Could you tell me which IC50 is on file for O=C1c2ccccc2-[n+]2ccc3c([nH]c4cc(Br)ccc43)c21 ?
1.27

Could you tell me which IC50 is on file for CCc1c[n+]2c(c3[nH]c4ccccc4c13)C(=O)c1ccccc1-2.[Cl-] ?
2.37

Could you tell me which IC50 is on file for O=C1c2ccccc2-[n+]2ccc3c([nH]c4ccc(Br)cc43)c21.[Cl-] ?
2.24
